Reference source: patent US7022707B2

# TARGET_OF_ASSAY: 5-HT2C receptor (Homo sapiens, UniProt P28335)
# Sequence (P28335 33-458): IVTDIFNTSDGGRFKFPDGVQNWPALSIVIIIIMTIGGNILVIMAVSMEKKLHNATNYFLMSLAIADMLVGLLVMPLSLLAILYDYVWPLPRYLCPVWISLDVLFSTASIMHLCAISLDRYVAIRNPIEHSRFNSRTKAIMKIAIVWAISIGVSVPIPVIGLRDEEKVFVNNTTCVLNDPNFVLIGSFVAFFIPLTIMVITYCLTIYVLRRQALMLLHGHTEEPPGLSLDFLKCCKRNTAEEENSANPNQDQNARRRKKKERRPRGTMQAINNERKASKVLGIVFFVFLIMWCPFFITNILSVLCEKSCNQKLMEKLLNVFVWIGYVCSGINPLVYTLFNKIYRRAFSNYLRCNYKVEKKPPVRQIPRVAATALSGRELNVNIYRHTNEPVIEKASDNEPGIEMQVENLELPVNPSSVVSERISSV
# RUN_DESCRIPTION: Binding to 5-HT2C receptor, [3H]-5-HT, Method (a)
# Set-up: expressed in transfected cells; host or cells: CHO cell line
# APPLIED_CONDITIONS: Method (a); [3H]-5-HT; CHO cell line; Ki calculated from IC50 (Cheng-Prusoff); read-out: Ki (2C)
Would you mind telling me the reported pKi of each entry?
pKi here: minus log base 10 of the concentration, concentration in moles per litre.

Ask | For the compound shown here, Cc1noc(C)c1COc1cc(F)c(COC(=O)N2[C@H](C)CNC[C@@H]2C)c(F)c1 , give the reported pKi.
Reply | 7.82

Ask | For the compound shown here, Cl.O=C(OCc1ccc(OC(F)F)cc1)N1CCNCC1 [Example 22, hydrochloride] , give the reported pKi.
Reply | 7.36

Ask | For the compound shown here, Cl.O=C(SCc1ccc(OCc2ccccc2)cc1)N1CCNCC1 [Example 32, hydrochloride] , give the reported pKi.
Reply | 7.82
